B1: MMP1 (parent)
chain: FVRGDHRDNSPFDGPGGNLAHAFQ

Variants of: B1
Assay remarks: protein stability index of a GFP-peptide fusion (GPS, HEK-293T) (PSI 1-6); higher = more stable;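 also: lentivirally expressed fusions sorted by FACS into six bins by GFP to DsRed ratio, PSI derived from sequencing read proportions per bin multiplied by bin number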
Condition info: c terminus: a fixed tail appended
Measured quantity: protein stability index
Answers are plain numbers.

So, V2Q ? Its protein stability index was 2.75

So, P15Y ? Its protein stability index was 2.52

So, R7A ? Its protein stability index was 2.02

So, F12P ? Its protein stability index was 2.31

So, A20F ? Its protein stability index was 2.66

So, N9Q ? Its protein stability index was 2.07

Please give protein stability index, item by item, for the list that follows.
1. A22W
2. G17D
3. F23T
4. F23V
5. R7I

[1.68, 1.82, 1.56, 1.99, 2.77]
